Values compiled from paper PMC5540273.

- System: TYRO3
- TEST CONDITIONS: concentration: 1 μM,replicates: in singlicate; n = 1;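 further: KINOMEscan kinase panel screen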
MEASURED QUANTITY: %Inh (%)
Expressed in %, but write only the number.

Quick check: %Inh of CN(c1ccccc1CNc1nc(Nc2ccc3c(c2)CC(=O)N3)ncc1C(F)(F)F)S(C)(=O)=O ?
0

What does the data say about its %Inh? Entry: COc1cc2c(Nc3ccc(NC(=O)c4ccccc4)cc3)ncnc2cc1OCCCN1CCOCC1
13

I would be grateful if you could share the reported %Inh for FC(F)(F)c1cc(Br)cc(Nc2nccc(-c3cnn4ncccc34)n2)c1 .
0

// %Inh lookup, key: CN(c1cccc(CNc2nc(Nc3ccc4c(c3)CC(=O)N4)ncc2C(F)(F)F)c1)S(C)(=O)=O
0

Quick one: %Inh for O=C(Nc1cccc(Oc2ccc3nccn3n2)c1)Nc1cccc(C(F)(F)F)c1 ?
0

Entry C[C@@H](Oc1cc(-n2cnc3cc(-c4cnn(C)c4)ccc32)sc1C(N)=O)c1ccccc1Cl has what %Inh?
11

Recorded %Inh of CN(c1ccc2c(c1)nc(NCc1ccc(F)cc1)n2C)c1ccnc(Nc2ccc(CS(C)(=O)=O)cc2)n1.Cl , please.
4

Recorded %Inh for O=C1NCCc2[nH]c(-c3ccncc3)cc21 , please?
0

Would you mind telling me what %Inh value was observed for Cc1ccc(CC(=O)N2CCc3cc(-c4cn(C)c5ncnc(N)c45)ccc32)cc1 ?
0

// lookup %Inh for CN1CCN(CCCNc2nccc(-c3c(-c4ccc(F)cc4)nn4cc(C(N)=O)ccc34)n2)CC1
0

Recorded %Inh for O=C(NCC1CC1)c1ccc(-c2cc(C(=O)NC3CC3)ccc2F)cc1 , please?
0

Give its %Inh value. Item: COc1ccc(Nc2nccc(N3CCC(NC(=O)c4cccc(C#N)c4)C3)n2)cc1 (centres unmarked)
0

Which value of %Inh has been reported for OCCn1cc(-c2cnc3nnn(Cc4ccc5ncccc5c4)c3n2)cn1 in the records?
0

Look at this compound and give its reported %Inh. COC(=O)Nc1nc2cc(Oc3ccc(NC(=O)Nc4cc(C(F)(F)F)ccc4Cl)cc3)ccc2[nH]1.Cl
3

Please give the measured %Inh for this compound: O=C(Nc1ccc(Oc2ccc3nc(NC(=O)C4CC4)cn3n2)c(F)c1)c1cccn(-c2ccccc2)c1=O
74

Tell me the measured %Inh of C[C@@H](Oc1cc(-n2cnc3ccc(-c4ccncc4)cc32)sc1C(N)=O)c1ccccc1Cl , please.
0

Which %Inh value belongs to COc1cccc(OC)c1C(=O)Nc1cccc(-c2nn3ccccc3c2-c2ccnc(Nc3cccc(F)c3)n2)c1 ?
79

----------
- System: DLK
- Construct: gene MAP3K12
- TEST CONDITIONS: concentration: 1 μM,replicates: in singlicate; n = 1
MEASURED QUANTITY: %Inh (%)
Just the number in %, nothing appended.

Which %Inh value belongs to Cn1ccc2ncnc(Oc3ccc(NC(=O)Nc4ccnc(C(F)(F)F)c4)c(Cl)c3)c21 ?
0

Item under review: CN(c1ccc2c(c1)nc(NCc1ccc(F)cc1)n2C)c1ccnc(Nc2ccc(CS(C)(=O)=O)cc2)n1.Cl . Reported %Inh?
0

What does the record list as %Inh for CCN1CCN(CCCC(=O)Nc2n[nH]c3nc(-c4ccc(O)cc4)c(Br)cc23)CC1 ?
8

# get_value(readout='%Inh', item= C[C@@H](Oc1cc(-n2cnc3ccc(-c4ccncc4)cc32)sc1C(N)=O)c1ccccc1Cl )
17

----------
Please provide measured %Inh for the entries that follow.
- Tested on: PDPK1
- TEST CONDITIONS: concentration: 1 μM,replicates: in singlicate; n = 1
Respond numerically; units are % and should not be typed.

So what does the record say about %Inh for CN1CCN(CCCNc2nccc(-c3c(-c4ccc(F)cc4)nn4cc(C(N)=O)ccc34)n2)CC1 [GW622475] ?
0

Can you share its %Inh? I mean this compound: Cc1nnc(-c2ccc3occ(-c4ccc(S(C)=O)cc4)c3n2)o1 (stereo not drawn)
2

Looking for the measured %Inh of Cc1ccn2nc(-c3ccc(F)cc3)c(-c3ccncc3)c2c1.Cl [GW457859] , can you help?
0

What measured %Inh goes with NC(=O)Nc1sc(-c2ccc(F)cc2)cc1C(N)=O [GW789449] ?
13

So what's the measured %Inh for this one? COC(=O)Nc1nc2cc(Oc3ccc(NC(=O)Nc4cc(C(F)(F)F)ccc4Cl)cc3)ccc2[nH]1.Cl [GW697465]
0

Reported %Inh, compound CCOC(=O)N1CCC(n2cnc(-c3ccc(F)cc3)c2-c2ccnc(N)n2)CC1 [SB-219952] : ____
7

# query: %Inh of entry CCn1c(-c2nonc2N)nc2cncc(CNC3CCNCC3)c21.Cl [SB-747651]
18

Suppose we examine the compound COc1ccc(Nc2nccc(N3CCC(NC(=O)c4cccc(C#N)c4)C3)n2)cc1 (stereo not drawn) [GSK1379730] ; what %Inh value has been reported?
26

Which %Inh value is on record for COc1cc2nccc(Nc3ccc(Oc4ccccc4)cc3)c2cc1OC.Cl [GI261656] ?
0

Look at this compound and give its reported %Inh. O=C1NCCc2[nH]c(-c3ccncc3)cc21
0

So what does the record say about %Inh for C[C@@H]1CCN(C(=O)N2CCCC2)C[C@@H]1N(C)c1ncnc2[nH]ccc12 ?
0

# %Inh lookup, item COC(=O)c1cccc(NC(=O)NC2CCN(c3ccnc(Nc4cc(OC)c(OC)c(OC)c4)n3)C2)c1 (stereo not drawn) [GSK1379767]
0

Reported %Inh, compound O=C(Nc1ccccc1)c1cccc(Oc2ccc3nccn3n2)c1 : ____
0

Sample C[C@@H](Oc1cc(-n2cnc3cc(-c4ccncc4)ccc32)sc1C(N)=O)c1ccccc1Cl [GSK479719] — what was its %Inh?
40

Could you tell me which %Inh is on file for CSc1nccc(-c2c(-c3ccc(F)cc3)ncn2CCCN2CCOCC2)n1.Cl [SB-217146] ?
10

Fill in the blank: the reported %Inh of CCNCC(Cc1ccccc1)NC(=O)c1cc(Br)c(-c2ccnc3[nH]ccc23)s1.Cl.Cl (stereo not drawn) [GSK1383280] is ____.
0

What value of %Inh has been reported for the following compound? CS(=O)(=O)Nc1ccc(-c2ccnc3[nH]ccc23)cc1 [GSK993273]
0

State the recorded %Inh for this entry: Cc1ccc2c(-c3ccnc(Nc4ccc(C(F)(F)F)cc4)n3)cnn2n1 [GW819776]
0

----------
Kindly supply the reported %Inh values for the records listed here.
- System: GRK2
- Construct: gene ADRBK1
- TEST CONDITIONS: concentration: 1 μM,replicates: in singlicate; n = 1
Field: numeric (%). Do not append units.

// fetch GRK2 %Inh for O=c1[nH]cc(-c2ccc(O)cc2)c2sc(-c3ccncc3)cc12
0

Which measured %Inh belongs to Cc1n[nH]c2cc(Nc3ccnc(Nc4cccc(CN5CCOCC5)c4)n3)ccc12 , tested on GRK2?
31

Param readout= %Inh; system= GRK2; entry= Cl.c1ccc(Oc2ccc(Nc3ccnc4cc(-c5ccc(CN6CCNCC6)o5)ccc34)cc2)nc1 ; returns value.
10

Lab note: need %Inh for Cn1ccc2ncnc(Oc3ccc(NC(=O)Nc4ccnc(C(F)(F)F)c4)c(Cl)c3)c21 on GRK2, anyone have it?
0

Query for GRK2: what %Inh does the record show for Cc1nnc(-c2ccc3occ(-c4ccc(S(C)=O)cc4)c3n2)o1 (stereo not drawn) ?
0

# value lookup — system GRK2, readout %Inh, item Cc1ccc(C(=O)Nc2ccc(Oc3ccc4nc(NC(=O)C5CC5)cn4c3)c(F)c2)c(=O)n1-c1ccccc1
0

GRK2 / %Inh / CCn1c(-c2nonc2N)nc2cncc(CNC3CCNCC3)c21.Cl : value?
0

Form entry - test system: GRK2; read-out: %Inh; compound: Cc1ccc(CC(=O)N2CCc3cc(-c4cn(C)c5ncnc(N)c45)ccc32)cc1
0

Value wanted: %Inh (GRK2) of entry NC(=O)c1ccc(-c2cc3ncnc(SCC(=O)O)c3s2)cc1
0

----------
- Test system: CSNK1G1
- TEST CONDITIONS: concentration: 1 μM,replicates: in singlicate; n = 1
MEASURED QUANTITY: %Inh (%)
I only need the number, in %, no unit after it.

# get_value(readout='%Inh', item= Cn1ccc2ncnc(Oc3ccc(NC(=O)Nc4cccc(C(F)(F)F)c4)c(Cl)c3)c21 )
0

Item under review: Cn1ccc2ncnc(Oc3ccc(NC(=O)Nc4cc(C(C)(C)C)on4)c(Cl)c3)c21 . Reported %Inh?
17

Requested field: %Inh. Item: CN(c1ccc2c(c1)nc(NCc1ccc(F)cc1)n2C)c1ccnc(Nc2ccc(CS(C)(=O)=O)cc2)n1.Cl
0

Form field: reported %Inh of CCn1c(-c2nonc2N)nc2cncc(CNC3CCNCC3)c21.Cl
24

Data request, read-out %Inh, for O=C(Nc1ccc(Oc2ccc3nc(NC(=O)C4CC4)cn3n2)c(F)c1)c1cccn(-c2ccccc2)c1=O
0

Could you tell me which %Inh is on file for Nc1nccc(-c2ccc3c(N)n[nH]c3c2)n1 ?
0

// query %Inh value for entry C[C@@H](Oc1cc(-n2cnc3cc(-c4cnn(C)c4)ccc32)sc1C(N)=O)c1ccccc1Cl
30

Which %Inh is reported for this compound? Cc1nnc(-c2ccc3occ(-c4ccc(S(C)=O)cc4)c3n2)o1 (centres unmarked)
17
